Record form. Attribute: normalized growth. Fill in for each entry.
Assay Notes: chemical genetic growth profiling, strain panel (AID 1159580);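 note: tested at 20 µM; growth read once vehicle control cultures reached saturation at 30 °C; 1 = growth at the plate median or of vehicle wells; lower values mean less growth of the strain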
Condition Details: S. cerevisiae deletion strains, growth OD, locus YDR159W, strain sac3, stronger effect = lower value
The whole screen tested about 5,500 compounds, of which about 2,000 (36%) were called active. Roughly 18% stayed inconclusive and do not appear here. Some of the results follow.
// return just the number, without any unit appended

[Q] Which value of normalized growth has been reported for Cc1cccc(CN2CCN(C(c3ccccc3)c3ccc(Cl)cc3)CC2)c1 (stereo unspecified) in the records?
[A] 0.925

[Q] normalized growth for C#C[C@]1(O)CCC2C3CCc4cc(OC)ccc4C3CC[C@@]21C (stereo partly specified) ?
[A] 0.949

[Q] Value lookup for normalized growth; key = CC[C@@H]1[C@@H](O)N2C3C[C@H]1C1C(O)[C@]4(C[C@@H]12)c1ccccc1N(C)[C@@H]34 (stereo partly specified)
[A] 0.974

[Q] // query normalized growth value for entry CC12CCCC(O)(C1)C1CC(C)(C)C1CC2 (stereo unspecified)
[A] 0.841

[Q] Which normalized growth is listed for CC[C@@]1(C2O[C@@H](C3O[C@@](O)(CC)[C@H](C)C[C@@H]3C)C[C@@H]2C)CC[C@H]([C@]2(C)CCC3(C[C@H](O)[C@@H](C)[C@@H]([C@H](C)[C@@H](OC)[C@H](C)C(=O)O)O3)O2)O1 (stereo partly specified) ?
[A] 1.02

[Q] Endpoint output: normalized growth of "C[C@](N)(Cc1ccc(O)c(O)c1)C(=O)O" . Value?
[A] 1

[Q] Quick check: normalized growth of CCCNC(C)C(=O)Nc1ccccc1C (stereo unspecified) ?
[A] 1

[Q] May I ask what normalized growth has been recorded for NC(=O)c1cc[n+](CC2=C(C(=O)O)N3C(=O)C(NC(=O)C(c4ccccc4)S(=O)(=O)[O-])C3SC2)cc1 (stereo unspecified) ?
[A] 0.997

[Q] Need normalized growth of CC1(C)O[C@@H]2CC3C4CCC5=CC(=O)C=C[C@]5(C)C4[C@@H](O)C[C@]3(C)[C@]2(C(=O)CO)O1 (stereo partly specified) , thanks.
[A] 1.02

[Q] Form field: reported normalized growth of CCN(CC)CCOC(=O)C(Cc1cccc2ccccc12)CC1CCCO1 (stereo unspecified)
[A] 1.02

[Q] Look up normalized growth for this compound: "NCCCCN=C(N)N"
[A] 1

[Q] Record request: normalized growth value, item "NCc1ccc(S(N)(=O)=O)cc1"
[A] 0.983

[Q] Entry CCCN(CCC)C(=O)C(CCC(=O)O)NC(=O)c1ccccc1 (stereo unspecified) : reported normalized growth = ?
[A] 0.935

[Q] Could you share which normalized growth value was measured for "CC1=C(/C=C/C(C)=C/C=C/C(C)=C/C(=O)O)C(C)(C)CCC1" ?
[A] 0.928

[Q] Which normalized growth value is on record for N[C@@H](CCC(=O)N[C@@H](CCSC(CC(=O)O)C(=O)O)C(=O)NCC(=O)O)C(=O)O (stereo partly specified) ?
[A] 0.996

[Q] Give its normalized growth value. Item: "CCCN(CCC)CCc1cccc2c1CC(=O)N2"
[A] 0.966

[Q] Sample C=CCN1CC[C@]23c4c5ccc(O)c4OC2C(=O)CC[C@@]3(O)[C@H]1C5 (stereo partly specified) — what was its normalized growth?
[A] 0.962

[Q] Would you mind telling me what normalized growth value was observed for "COS(C)(=O)=O" ?
[A] 0.944

[Q] Name the recorded normalized growth for "O=C(O)c1cc(=O)c(O)c2c(O)c(O)ccc2c1" .
[A] 0.969

[Q] Need normalized growth of Nc1nc(N)c2nc(CNc3ccc(C(=O)NC(CCC(=O)O)C(=O)O)cc3)cnc2n1 (stereo unspecified) , thanks.
[A] 1.05

[Q] Which normalized growth value is on record for "O=C1O[C@@H](CO)[C@H](O)[C@@H](O)[C@@H]1O" ?
[A] 1

[Q] Can you look up the measured normalized growth of "O=C(O)P(=O)(O)O" for me?
[A] 0.963

[Q] Requested read-out: normalized growth. Entry: "O=C(O)c1cc(=O)c(O)c2c(O)c(O)c(O)cc2c1"
[A] 0.134

[Q] Please give the measured normalized growth for this compound: "O=C(O)CNCP(=O)(O)O"
[A] 1.02

[Q] What value of normalized growth has been reported for the following compound? CC(Cc1ccc(O)c(O)c1)(NN)C(=O)O (stereo unspecified)
[A] 1

[Q] Request the reported normalized growth associated with CCC(COC(=O)c1cc(OC)c(OC)c(OC)c1)(c1ccccc1)N(C)C (stereo unspecified)
[A] 0.986

[Q] Form field: reported normalized growth of CC1(C)C2CC(=O)O[C@@]3(C)C4=CC(=O)O[C@@H](c5ccoc5)[C@]4(C)CCC3[C@@]2(C)C=C[C@H]1O (stereo partly specified)
[A] 0.953

[Q] // query normalized growth value for entry "COc1ccc(CN(CCN(C)C)c2ncccn2)cc1"
[A] 0.992

[Q] Quick one: normalized growth for "CC1=C(/C=C/C(C)=C/C=C/C(C)=C/CO)C(C)(C)CCC1" ?
[A] 0.968

[Q] Name the recorded normalized growth for COc1cc(C)c2c(c1C=O)Oc1c(c(C)c(O)c3c1C(O)OC3=O)OC2=O (stereo unspecified) .
[A] 1.02

[Q] Which normalized growth reading was recorded for the compound "c1cc2c(cc1[C@H]1OC[C@H]3[C@@H]1CO[C@H]3c1ccc3c(c1)OCO3)OCO2" ?
[A] 0.856
